The origin of these recorded values is the Immune Epitope Database (IEDB).

Molecular target: HLA-B*18:01
Assay: IEDB peptide-MHC binding, purified MHC/competitive/fluorescence; bounds were set here for any values at or beyond the usual limits of such assays
Conditions: source organism: Pan troglodytes
pIC50: −log10 of the molar value.
measurementName: pIC50

Consider RPPYSSYGY . Its measured pIC50 is ≤ 4.70

====

Target: HLA-A*02:03
Assay: IEDB peptide-MHC binding, purified MHC/direct/fluorescence; filed as Kd, often an IC50 or EC50 that approximates it; bounds were set here for any values at or beyond the usual limits of such assays
Details: source organism: Limestone Canyon virus
measurementName: Kd

Consider YKSRCYVGL . Its measured Kd is ≥ 20 µM
